Tested on: HCT-15 colon
ASSAY DETAILS: NCI tumour cell line growth inhibition, 48 h
*1 amine or outer side, *2 acyl side, *3 side chain or, on linkers, in order; H or OH if unused. Where a SMILES comes first, the peptide text is derived from it. Bridges are numbered along the chain shown (N, C = ends). [ ]: non-standard residue; d: D form. The star is where a group is joined. ξ: configuration not given here. X34 = O=C(C(CCCCNO[*:3])N[*:1])[*:2]; Fmoc = O=C(OCC1c2ccccc2-c2ccccc21)*; ξW = NC(Cc1c[nH]c2ccccc12)C(=O)O; ξP = O=C(O)C1CCCN1
Record form. Attribute: TGI. Fill in for each entry.

Ask: Provide measured TGI on HCT-15 colon for `CC1=C2C(=O)NN=C2CCN1c1ccc(Br)cc1` please.
Reply: > 100 µM

Ask: Provide measured TGI on HCT-15 colon for `Cc1cc(N(CCC#N)CCC#N)ccc1/C=N/NC(=O)c1cc(Cl)ccc1O` please.
Reply: > 100 µM

Ask: Provide measured TGI on HCT-15 colon for `NC(=O)N/N=C(\Cc1nc2ccc(Cl)cc2[nH]c1=O)C(=O)Nc1ccc(Cl)cc1Cl` please.
Reply: > 100 µM

Ask: Provide measured TGI on HCT-15 colon for `Cc1nc2c(nc1Cl)nc(Oc1ccc(Cl)cc1)c1ccccc12` please.
Reply: > 100 µM

Ask: Provide measured TGI on HCT-15 colon for `S=C(N/N=C\C=N/NC(=S)N1CCCCC1)N1CCCCC1` please.
Reply: > 100 µM

Ask: Provide measured TGI on HCT-15 colon for CN1C(=O)N(c2ccccc2)C2(CCN(CC3COc4ccccc4O3)CC2)C1=O (stereo not given) please.
Reply: > 100 µM

Ask: Provide measured TGI on HCT-15 colon for `CC[C@]1(Cc2ccc(OC)c(OC)c2)CN(S(=O)(=O)c2ccc(C)cc2)C[C@@H]1OC(C)=O` please.
Reply: > 100 µM

Ask: Provide measured TGI on HCT-15 colon for CSc1ccc(C2=NN(C(C)=O)C(c3cc(C)cs3)C2)cc1 (stereo not given) please.
Reply: > 100 µM

Ask: Provide measured TGI on HCT-15 colon for COc1ccc(C2=NN(C(=O)c3cc(OC)c(OC)c(OC)c3)C(c3ccc(C#N)cc3)C2)cc1OC (stereo not given) please.
Reply: > 64.8 µM

Ask: Provide measured TGI on HCT-15 colon for CC1(O)CC(C(F)(F)F)(C(F)(F)F)OC1=O (stereo not given) please.
Reply: > 10 µM

Ask: Provide measured TGI on HCT-15 colon for CCCCCCCCCCCCCC(=O)OC1CC(=O)OC1CO (stereo not given) please.
Reply: 38.4 µM

Ask: Provide measured TGI on HCT-15 colon for `Nc1nc2cc3nc(N)c(N)nc3cc2nc1N` please.
Reply: > 100 µM

Ask: Provide measured TGI on HCT-15 colon for c1ccc(C2C3=C(Nc4ncnn42)c2ccccc2C3)cc1 (stereo not given) please.
Reply: > 100 µM

Ask: Provide measured TGI on HCT-15 colon for NC(=O)CNC(=O)C1CCCN1C(=O)C1CCCCNOC(=O)CC[C@@H](NC(=O)OCC2c3ccccc3-c3ccccc32)C(=O)NC(Cc2c[nH]c3ccccc23)C(=O)N1 (stereo not given in full) (Fmoc-[dE][ξW][X34][ξP]G-NH2; ester 1-3) please.
Reply: > 100 µM

Ask: Provide measured TGI on HCT-15 colon for `NCC1CCN(c2nc3ccccc3c3c2CCCC3)CC1` please.
Reply: 14.9 µM

Ask: Provide measured TGI on HCT-15 colon for `C[C@]12CC[C@H](O)CC1=CC[C@@H]1[C@@H]2CC[C@]2(C)C(c3cccnc3)=CC[C@@H]12` please.
Reply: > 100 µM

Ask: Provide measured TGI on HCT-15 colon for CCOC(=O)NC(=O)c1cn(C2OC(COC(=O)CCCCCCCCC(=O)OCC3OC(n4cc(C(=O)NC(=O)OCC)c(=O)[nH]c4=O)C(O)C3O)C(O)C2O)c(=O)[nH]c1=O (stereo not given) please.
Reply: > 100 µM

Ask: Provide measured TGI on HCT-15 colon for CCOC(=O)C1Cc2[nH]c3ccccc3c2C(C)C1C (stereo not given) please.
Reply: 32.1 µM

Ask: Provide measured TGI on HCT-15 colon for `CC(C)Sc1nc(C#N)cc2c1CCCC2` please.
Reply: > 100 µM

Ask: Provide measured TGI on HCT-15 colon for `Cc1c(F)c(N)c2c(=O)cc(-c3ccc(NC(=O)CN(C)C)c(F)c3)oc2c1F` please.
Reply: > 100 µM

---

System: EKVX NSCLC
ASSAY DETAILS: NCI tumour cell line growth inhibition, 48 h
MEASUREMENT KIND: TGI

Ask: Provide measured TGI on EKVX NSCLC for `Cc1ccc(S(=O)(=O)N(CCOc2ccc(/C(N)=N/Cl)cc2)CCOc2ccc(/C(N)=N\Cl)cc2)cc1` please.
Reply: 93.2 µM

Ask: Provide measured TGI on EKVX NSCLC for `O=C(Nc1ccc(N2CCNCC2)cc1)c1[nH]ncc1Nc1cc(Oc2ccccc2)ncn1` please.
Reply: 6.79 µM

Ask: Provide measured TGI on EKVX NSCLC for `Cc1c(C(=O)N/N=C/c2ccc(Cl)cc2)nnn1-c1ccnc2c(C(F)(F)F)cccc12` please.
Reply: > 100 µM

Ask: Provide measured TGI on EKVX NSCLC for `S=C(N/N=C\C=N/NC(=S)N1CCCCC1)N1CCCCC1` please.
Reply: > 100 µM

Ask: Provide measured TGI on EKVX NSCLC for `Cc1cc(N(CCC#N)CCC#N)ccc1/C=N/NC(=O)c1cc(Cl)ccc1O` please.
Reply: > 100 µM

Ask: Provide measured TGI on EKVX NSCLC for `O=c1oc2ccc(F)cc2c(=O)n1-c1ccc(F)cc1F` please.
Reply: 9.79 µM

Ask: Provide measured TGI on EKVX NSCLC for COC(=O)C1C(C(=O)OC)N(Cc2ccccc2)C(=O)N1Cc1ccccc1 (stereo unspecified) please.
Reply: > 100 µM

Ask: Provide measured TGI on EKVX NSCLC for CCOC(=O)NC(=O)c1cn(C2OC(COC(=O)CCCCCCCCC(=O)OCC3OC(n4cc(C(=O)NC(=O)OCC)c(=O)[nH]c4=O)C(O)C3O)C(O)C2O)c(=O)[nH]c1=O (stereo unspecified) please.
Reply: > 100 µM

Ask: Provide measured TGI on EKVX NSCLC for COC(=O)CC(C(C(=O)OC)C(=O)OC)N1C(=O)OCC1c1ccccc1 (stereo unspecified) please.
Reply: > 100 µM

Ask: Provide measured TGI on EKVX NSCLC for Cc1ccc(C)c(NC(=O)CC/C(=N\NC(=O)C(=O)NN)C(C)C(=O)c2ccc(O)cc2)c1 (stereo unspecified) please.
Reply: > 100 µM

Ask: Provide measured TGI on EKVX NSCLC for `C#CCCCCC#Cc1ccccc1C(=O)OC` please.
Reply: > 100 µM

Ask: Provide measured TGI on EKVX NSCLC for `COc1cnc2cc(C(=O)O)c3c([N+](=O)[O-])cccc3c2c1` please.
Reply: > 100 µM

Ask: Provide measured TGI on EKVX NSCLC for `Cc1nc2c(sc(=S)n2-c2ccccc2)c2nc3ncccc3n12` please.
Reply: > 100 µM

Ask: Provide measured TGI on EKVX NSCLC for `Nc1cc(CO)cc(Nc2nc3ccc(Cl)cc3c3[nH]c4ccccc4c23)c1` please.
Reply: 15.1 µM

Ask: Provide measured TGI on EKVX NSCLC for `O=c1[nH]n2c(=O)cc[nH]c2c1-c1nnns1` please.
Reply: > 100 µM

Ask: Provide measured TGI on EKVX NSCLC for `O=[N+]([O-])/C=C\c1ccc(Cl)c(Cl)c1` please.
Reply: 17.5 µM

Ask: Provide measured TGI on EKVX NSCLC for `O=C(O)CC/C(=N\Nc1nsc2ccccc12)c1ccccc1` please.
Reply: > 100 µM

Ask: Provide measured TGI on EKVX NSCLC for CN(C)CCCOc1nc2c(c(=O)n(C)c(=O)n2C)n1C (tested in a mixture with another compound) please.
Reply: > 100 µM

Ask: Provide measured TGI on EKVX NSCLC for OCCC1(O)CCC(O)CC1 (stereo unspecified) please.
Reply: > 100 µM

Ask: Provide measured TGI on EKVX NSCLC for `COC(=O)c1cc2c3ccccc3[nH]c2c2ncccc12` please.
Reply: > 100 µM

Ask: Provide measured TGI on EKVX NSCLC for `COc1cc(OC)cc(-c2ccc(-c3ccc(C(=N)N)o3)o2)c1` please.
Reply: 18.5 µM

---

System: HCT-116 colon
ASSAY DETAILS: NCI tumour cell line growth inhibition, 48 h
*1 amine or outer side, *2 acyl side, *3 side chain or, on linkers, in order; H or OH if unused. Where a SMILES comes first, the peptide text is derived from it. Bridges are numbered along the chain shown (N, C = ends). [ ]: non-standard residue; d: D form. The star is where a group is joined. ξ: configuration not given here. X34 = O=C(C(CCCCNO[*:3])N[*:1])[*:2]; Fmoc = O=C(OCC1c2ccccc2-c2ccccc21)*; ξW = NC(Cc1c[nH]c2ccccc12)C(=O)O; ξP = O=C(O)C1CCCN1
MEASUREMENT KIND: TGI

Ask: Read off the recorded TGI for `CC(=O)Nc1ccccc1Sc1ccccc1`
Reply: > 100 µM

Ask: Read off the recorded TGI for `O=C1CCC[C@@H]2NC[C@@H](c3ccc4c(c3)OCO4)[C@H]12`
Reply: > 25 µM

Ask: Read off the recorded TGI for `COc1cc(-c2cc(=O)c3cc4c(cc3[nH]2)OCO4)cc(OC)c1O`
Reply: > 10 µM

Ask: Read off the recorded TGI for `Cc1ccc(S(=O)(=O)N(CCOc2ccc(/C(N)=N/Cl)cc2)CCOc2ccc(/C(N)=N\Cl)cc2)cc1`
Reply: > 100 µM

Ask: Read off the recorded TGI for O=c1nc(N2CCN(c3ccccc3)CC2)ccn1C1OC(CO)C(O)C1O (centres undefined)
Reply: > 100 µM

Ask: Read off the recorded TGI for `Cc1c(-c2nc3ccccc3[nH]2)c(=O)n(-c2ccccc2)n1C`
Reply: > 100 µM

Ask: Read off the recorded TGI for Clc1ccc(C2N3CCCCC3[C@@H]3c4[nH]c5ccccc5c4CCN23)cc1 (some centres undefined)
Reply: > 100 µM

Ask: Read off the recorded TGI for NC(=O)CNC(=O)C1CCCN1C(=O)C1CCCCNOC(=O)CC[C@@H](NC(=O)OCC2c3ccccc3-c3ccccc32)C(=O)NC(Cc2c[nH]c3ccccc23)C(=O)N1 (some centres undefined) (Fmoc-[dE][ξW][X34][ξP]G-NH2; ester 1-3)
Reply: > 100 µM

Ask: Read off the recorded TGI for `CC[CH2][Pb]([CH2]CC)([CH2]CC)[O]C(=O)C(F)(F)F`
Reply: 0.262 µM
